# experimental.system: T1, C-MabR (Mycobacterium tuberculosis, UniProt P9WPH5 161-414)
# T1 sequence: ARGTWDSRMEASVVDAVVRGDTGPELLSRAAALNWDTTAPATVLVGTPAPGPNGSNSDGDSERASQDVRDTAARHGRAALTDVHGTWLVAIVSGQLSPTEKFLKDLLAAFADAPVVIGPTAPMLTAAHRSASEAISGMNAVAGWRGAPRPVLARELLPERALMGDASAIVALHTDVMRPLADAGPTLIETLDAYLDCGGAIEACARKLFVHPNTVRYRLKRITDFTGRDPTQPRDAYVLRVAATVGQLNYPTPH
# measurement.protocol: ITC; 20 C; 50 mM Tris pH 7.5, 150 mM NaCl; […]; […], room temperature 30 min; ITC: 50 mM Tris pH 7.5, 150 mM NaCl, 20 C
# condition.details: protein: recombinant; tags: N-terminal 6xHis (pET28a); chain copies: 2; blunt
readout.type: Kd (µM)
The reply should be a number in µM, with the unit left off.

Form field: reported Kd of 23-bp FAS-II promoter dsDNA (dsDNA) DNA 1: GTTTTGTTGGTTATATACAAAAA DNA 2: TTTTTGTATATAACCAACAAAAC
4.3
